Target: Luciferin 4-monooxygenase (Photinus pyralis) (UniProt P08659)
Sequence (P08659 whole entry, looked up): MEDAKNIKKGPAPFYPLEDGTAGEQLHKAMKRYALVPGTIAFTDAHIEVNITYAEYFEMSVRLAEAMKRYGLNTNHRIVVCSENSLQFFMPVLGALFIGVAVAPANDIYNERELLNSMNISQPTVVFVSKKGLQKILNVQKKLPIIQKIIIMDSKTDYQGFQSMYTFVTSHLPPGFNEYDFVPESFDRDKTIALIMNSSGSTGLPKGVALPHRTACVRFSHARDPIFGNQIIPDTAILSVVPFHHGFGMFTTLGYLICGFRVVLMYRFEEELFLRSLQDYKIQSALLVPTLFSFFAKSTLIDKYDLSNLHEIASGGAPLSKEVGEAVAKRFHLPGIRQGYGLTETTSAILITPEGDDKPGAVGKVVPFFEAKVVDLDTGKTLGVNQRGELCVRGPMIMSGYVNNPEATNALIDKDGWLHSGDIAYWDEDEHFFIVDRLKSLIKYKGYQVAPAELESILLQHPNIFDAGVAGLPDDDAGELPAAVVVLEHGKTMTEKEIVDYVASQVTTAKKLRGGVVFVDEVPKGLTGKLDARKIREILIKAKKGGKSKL
Assay: firefly luciferase enzyme inhibitors, primary screen, biochemical, luminescence, purified enzyme, 2006 set (AID 1141);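 further: cell-free assay with purified firefly luciferase at 100 ng per well in PBS; test concentration not given here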
Details: SteadyGlo luminescence, 30 min, higher = more signal, called active from +8 up or from −8 down
Label scheme for z-score: lower than -0.5 is No, -0.5 and above is Yes.

Prompt line: z-score >= -0.5 for "[N-]=[N+]=NCc1ccccc1C[C@]1(C(=O)O)COC(c2ccc(OCCCO)cc2)=N1" ?
Response line: No

Prompt line: z-score >= -0.5 for "COCCOC(=O)N1C(=O)[C@@]2(c3cc(C#CC4(O)CCCCCC4)ccc31)[C@H](C(=O)NC[C@H](O)c1ccccc1)[C@H]1C(=O)O[C@H](c3ccccc3)[C@H](c3ccccc3)N1[C@@H]2c1ccc(O)cc1" ?
Response line: Yes

Prompt line: z-score >= -0.5 for NC(=O)N1C(=O)C2C(C1=O)C1C=C(CCCO)C2C(c2ccc(CN3CCCC3)cc2)N1Cc1cccc(OC(F)(F)F)c1 (centres undefined) ?
Response line: No

Prompt line: z-score >= -0.5 for "COCCOC(=O)N1C(=O)[C@@]2(c3cc(C#CCCO)ccc31)[C@H](c1ccc(O)cc1)N1[C@H](c3ccccc3)[C@H](c3ccccc3)OC(=O)[C@H]1[C@@H]2C(=O)N1CCc2cc(OC)c(OC)cc2C1" ?
Response line: Yes

Prompt line: z-score >= -0.5 for C[C@H]1C2[C@H](Cc3ccccc3)NC(=O)[C@]23C(=O)NCC(=O)N2CCC[C@H]2C(=O)NC/C=C\C/C=C/C3[C@@H]2O[C@]12C (some centres undefined) ?
Response line: No

Prompt line: z-score >= -0.5 for "O=C1O[C@H](c2ccccc2)[C@H](c2ccccc2)N2[C@H]1[C@@H](C(=O)NC[C@H](O)c1ccccc1)[C@]1(C(=O)Nc3ccc(C#CCCO)cc31)[C@H]2c1ccccc1OCCO" ?
Response line: Yes

Prompt line: z-score >= -0.5 for "CC(C)[C@@H](C(=O)O)n1cc(-c2ccccc2)nn1" ?
Response line: Yes

Prompt line: z-score >= -0.5 for "NC(=O)NCC#Cc1ccc2c(c1)[C@]1(C(=O)N2)[C@H](C(=O)N2CCCCCCC2)[C@H]2C(=O)O[C@H](c3ccccc3)[C@H](c3ccccc3)N2[C@@H]1c1ccc(O)cc1" ?
Response line: Yes

Prompt line: z-score >= -0.5 for "CN(C)CCCNC(=O)[C@@]1(Cc2ccccc2I)c2ccccc2C(=O)N(Cc2ccccc2)[C@H]1c1ccc(CO)cc1" ?
Response line: Yes

Prompt line: z-score >= -0.5 for "CCOC(=O)C1=CC[C@@H](c2ccccc2)N(S(=O)(=O)c2ccc(C)cc2)[C@H]1C#N" ?
Response line: Yes

Prompt line: z-score >= -0.5 for "CCCC=C(CCC)[C@@H](NC(=O)c1ccccc1)c1ccc(C(=O)OC)cc1" ?
Response line: Yes

Prompt line: z-score >= -0.5 for CN1C(=O)C2C(C1=O)C1C=C(c3ccc(CO)cc3)C2C(c2cccs2)N1C (centres undefined) ?
Response line: No

Prompt line: z-score >= -0.5 for O=C1C2C=CC(C(O)c3cccc(O)c3)N(Nc3ccccc3F)C2C(=O)N1c1ccccc1 (centres undefined) ?
Response line: Yes

Prompt line: z-score >= -0.5 for "C=CCOC(=O)[C@@H]1[C@H]2C(=O)O[C@H](c3ccccc3)[C@H](c3ccccc3)N2[C@H](c2ccc(OCCOC(=O)[C@H]3C[C@H]4C(=O)NCC(=O)N4[C@H]3c3ccc(O)cc3)cc2)[C@@]12C(=O)Nc1ccc(I)cc12" ?
Response line: Yes
